Biological target: β-catenin/BCL9 PPI (Homo sapiens, UniProt P35222)
Construct: 40 nM His6-tagged FL-β-catenin
Sequence (P35222 1-781): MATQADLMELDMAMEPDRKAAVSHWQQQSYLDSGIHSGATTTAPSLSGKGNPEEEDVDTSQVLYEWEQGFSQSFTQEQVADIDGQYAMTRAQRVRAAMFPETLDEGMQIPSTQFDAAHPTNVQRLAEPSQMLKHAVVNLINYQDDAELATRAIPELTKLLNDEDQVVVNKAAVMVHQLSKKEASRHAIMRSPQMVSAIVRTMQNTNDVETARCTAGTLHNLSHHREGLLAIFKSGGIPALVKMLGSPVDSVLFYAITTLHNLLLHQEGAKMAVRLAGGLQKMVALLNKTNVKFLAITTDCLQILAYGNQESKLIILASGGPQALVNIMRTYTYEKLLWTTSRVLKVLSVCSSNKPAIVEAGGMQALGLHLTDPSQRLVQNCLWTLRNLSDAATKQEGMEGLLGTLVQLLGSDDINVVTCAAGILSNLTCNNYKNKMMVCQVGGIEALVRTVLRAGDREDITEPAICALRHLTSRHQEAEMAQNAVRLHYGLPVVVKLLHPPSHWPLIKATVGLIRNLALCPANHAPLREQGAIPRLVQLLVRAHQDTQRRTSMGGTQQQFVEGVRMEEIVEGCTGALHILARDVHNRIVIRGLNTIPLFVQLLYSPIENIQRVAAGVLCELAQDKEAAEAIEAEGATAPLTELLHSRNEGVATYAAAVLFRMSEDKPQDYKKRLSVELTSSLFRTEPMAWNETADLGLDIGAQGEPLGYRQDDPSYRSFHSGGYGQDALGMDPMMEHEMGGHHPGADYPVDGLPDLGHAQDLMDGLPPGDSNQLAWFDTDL
Assay: AlphaScreen competitive inhibition assay of β-catenin/BCL9 PPI
Conditions: AlphaScreen, Ki derived from IC50 by method of Nikolovska-Coleska et al., mean ± SD
Measured parameter: Ki (µM)

Molecule | Measured parameter | Unit of measure | Modifier | Value observed
CCC(C)[C@@H](CN(CC(=O)N[C@@H](CC(C)C)CN(CC(=O)N[C@@H](C)CN(CC(N)=O)S(=O)(=O)Cc1ccccc1)S(=O)(=O)CC(C)C)S(C)(=O)=O)NC(=O)CN(C[C@H](CCCNC(=N)N)NC(=O)CN(C[C@H](C)NC(=O)CN(C[C@@H](NC(=O)CN(C[C@H](CC(C)C)NC(=O)CN(C[C@H](CCCNC(=N)N)NC(=O)CN(C[C@H](C)NC(=O)CN(C[C@H](CCC(=O)O)NC(C)=O)S(C)(=O)=O)S(C)(=O)=O)S(C)(=O)=O)S(=O)(=O)CCN)C(C)O)S(=O)(=O)CC(C)C)S(=O)(=O)CCN)S(=O)(=O)CC(C)C (stereo partly drawn) [Peptide 12] | Ki | µM | > | 10
CCC(C)[C@@H](CN(CC(=O)N[C@@H](CC(C)C)CN(CC(=O)N[C@@H](CC(C)C)CN(CC(N)=O)S(=O)(=O)Cc1ccccc1)S(=O)(=O)CC(C)C)S(C)(=O)=O)NC(=O)CN(C[C@H](CCCNC(=N)N)NC(=O)CN(C[C@H](CC(C)C)NC(=O)CN(C[C@@H](NC(=O)CN(C[C@H](CC(C)C)NC(=O)CN(C[C@H](CCCNC(=N)N)NC(=O)CN(C[C@H](C)NC(=O)CN(C[C@H](CCC(=O)O)NC(C)=O)S(=O)(=O)CCN)S(C)(=O)=O)S(C)(=O)=O)S(=O)(=O)CCN)C(C)O)S(=O)(=O)CC(C)C)S(=O)(=O)CCN)S(=O)(=O)CC(C)C (stereo partly drawn) [Peptide 4] | Ki | µM | = | 0.98
CCC(C)[C@@H](CN(CC(=O)N[C@@H](CC(C)C)CN(CC(=O)N[C@@H](CC(C)C)CN(CC(N)=O)S(=O)(=O)Cc1ccccc1)S(=O)(=O)CC(C)C)S(C)(=O)=O)NC(=O)CN(C[C@H](CCCNC(=N)N)NC(=O)CN(C[C@H](CC(C)C)NC(=O)CN(C[C@@H](NC(=O)CN(C[C@H](CC(C)C)NC(=O)CN(C[C@H](CCCNC(=N)N)NC(=O)CN(C[C@H](CCCNC(=N)N)NC(=O)CN(C[C@H](CCC(=O)O)NC(C)=O)S(=O)(=O)CCN)S(C)(=O)=O)S(C)(=O)=O)S(=O)(=O)CCN)C(C)O)S(=O)(=O)CC(C)C)S(=O)(=O)CCN)S(C)(=O)=O (stereo partly drawn) [Peptide 8] | Ki | µM | = | 7.2

Data origin, for the record: patent US12415832B2
